Data origin: paper PMC2229530

subject of test: sodium pump (Rattus norvegicus)
Sequence (Q63377 whole entry, other chains not shown): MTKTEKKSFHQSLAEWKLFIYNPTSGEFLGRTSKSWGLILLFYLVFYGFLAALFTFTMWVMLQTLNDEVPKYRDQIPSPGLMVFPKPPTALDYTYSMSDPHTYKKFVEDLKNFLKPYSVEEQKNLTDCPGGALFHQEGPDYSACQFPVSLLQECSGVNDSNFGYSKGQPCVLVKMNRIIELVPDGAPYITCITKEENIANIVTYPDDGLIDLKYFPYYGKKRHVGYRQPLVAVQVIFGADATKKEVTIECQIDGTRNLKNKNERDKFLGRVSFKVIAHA
condition: read-out: KH, proton binding to the pump in the absence of rubidium; rat pump; unloaded
pKd: −log10 of the molar value.
experimental endpoint: pKd

>>> value_observed("[H+] [protons]")
8.68
